- Measured on: recombinant alpha-glucosidase II (murine full-length glucosidase II, alpha and beta subunits, Glu 2) (Mus musculus, UniProt Q8BHN3)
- Construct: made in house; host or cells: HEK-293T cells transduced with BacMam viruses (75% alpha, 25% beta); protein harvested from culture supernatant
- Sequence (O08795 15-521): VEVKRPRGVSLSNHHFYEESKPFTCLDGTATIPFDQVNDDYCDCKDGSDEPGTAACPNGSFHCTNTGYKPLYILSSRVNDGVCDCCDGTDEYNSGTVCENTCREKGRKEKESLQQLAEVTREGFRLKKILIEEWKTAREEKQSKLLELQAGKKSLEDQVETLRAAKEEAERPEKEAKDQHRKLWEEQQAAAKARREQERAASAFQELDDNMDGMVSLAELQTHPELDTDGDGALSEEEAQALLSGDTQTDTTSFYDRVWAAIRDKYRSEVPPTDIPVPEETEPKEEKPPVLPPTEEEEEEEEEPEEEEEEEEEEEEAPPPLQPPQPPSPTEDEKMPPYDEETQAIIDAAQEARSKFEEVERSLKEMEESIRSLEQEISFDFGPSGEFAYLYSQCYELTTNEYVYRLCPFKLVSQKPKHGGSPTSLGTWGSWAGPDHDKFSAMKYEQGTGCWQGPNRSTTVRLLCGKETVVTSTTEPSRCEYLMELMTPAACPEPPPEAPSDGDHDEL
- Sequence (Q8BHN3 33-944): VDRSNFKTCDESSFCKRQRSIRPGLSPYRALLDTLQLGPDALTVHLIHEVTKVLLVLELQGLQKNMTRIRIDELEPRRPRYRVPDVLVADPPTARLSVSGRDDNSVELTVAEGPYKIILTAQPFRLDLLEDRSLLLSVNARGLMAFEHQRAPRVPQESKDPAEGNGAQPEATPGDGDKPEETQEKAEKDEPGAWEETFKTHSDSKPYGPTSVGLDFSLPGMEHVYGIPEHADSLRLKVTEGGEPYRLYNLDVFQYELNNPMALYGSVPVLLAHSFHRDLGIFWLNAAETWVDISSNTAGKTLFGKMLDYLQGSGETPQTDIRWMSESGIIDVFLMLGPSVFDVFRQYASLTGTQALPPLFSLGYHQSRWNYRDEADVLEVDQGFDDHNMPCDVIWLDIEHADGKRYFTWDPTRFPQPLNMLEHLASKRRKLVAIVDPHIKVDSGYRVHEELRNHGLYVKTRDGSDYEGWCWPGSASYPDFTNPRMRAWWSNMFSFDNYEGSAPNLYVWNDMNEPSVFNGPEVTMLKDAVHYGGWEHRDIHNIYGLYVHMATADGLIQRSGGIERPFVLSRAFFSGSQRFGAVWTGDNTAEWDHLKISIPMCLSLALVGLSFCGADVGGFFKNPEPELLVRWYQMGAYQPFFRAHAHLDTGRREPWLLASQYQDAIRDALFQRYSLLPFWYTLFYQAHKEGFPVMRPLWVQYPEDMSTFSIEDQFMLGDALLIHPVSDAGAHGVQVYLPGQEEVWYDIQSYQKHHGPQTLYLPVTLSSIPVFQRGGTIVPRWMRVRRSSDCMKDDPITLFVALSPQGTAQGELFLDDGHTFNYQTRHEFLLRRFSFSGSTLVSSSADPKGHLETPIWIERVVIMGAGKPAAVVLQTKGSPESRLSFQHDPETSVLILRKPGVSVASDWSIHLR
- Assay explanation: Alpha-glucosidase II assay (4-methylumbelliferyl-alpha-D-pyranoside substrate, fluorescence)
- Format: biochemical
- Settings: Glucosidase 2; read-out: Glu2 IC50
pIC50: −log10 of the molar value.
Lab note: compare pIC50 against 6. Equal or greater, write True. Smaller, write False.

>>> df
                                   compound  class_assignment
0  [N-]=[N+]=Nc1ccc(NCCc2cc(Br)cc(CCN3C[C@H](O)[C@@H](O)[C@H](O)[C@H]3CO)c2)c([N+](=O)[O-])c1 [Compound 1140]              True
1  [N-]=[N+]=Nc1ccc(NCCS(=O)(=O)CCCN2C[C@H](O)[C@@H](O)[C@H](O)[C@H]2CO)c([N+](=O)[O-])c1 [Compound 1274]              True
2  N#Cc1cc(NCc2cccc(CN3C[C@H](O)[C@@H](O)[C@H](O)[C@H]3CO)c2)cc(N2CCOCC2)c1 [Compound 1042]             False

Test whether the compound N#Cc1cc(NCc2cccc(CN3C[C@H](O)[C@@H](O)[C@H](O)[C@H]3CO)c2)cc(-c2ncccn2)c1 [Compound 1047] records pIC50 of 6 or higher.
False

Now give it for N#Cc1cc(NCc2cccc(CN3C[C@H](O)[C@@H](O)[C@H](O)[C@H]3CO)c2)cc(C2=COCCO2)c1 [Compound 1044] too.
False

Now give it for [N-]=[N+]=Nc1ccc(NCCc2ccc(CCN3C[C@H](O)[C@@H](O)[C@H](O)[C@H]3CO)s2)c([N+](=O)[O-])c1 [Compound 1186] too.
True
